test system: Sprague Dawley (SD) rats; test: Acute food intake in ad libitum fed rats after a single subcutaneous administration; format: in vivo, rat; settings: Table 6a, rat, single administration, 0-24 hr;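 note: food intake monitored in the HM2 system, three rats per cage kept on a reversed light cycle, with food and water freely available after the subcutaneous dose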
Starred links: 1 amine or outer side, 2 acyl side, 3 side chain; linkers in the order of their positions; H or OH if unused. Non-standard residues stand in square brackets, D forms with d. Groups on a side chain read outwards from the residue. *: point of attachment. Decanoyl(10-(4-HOOC-PhO)) = O=C(O)c1ccc(OCCCCCCCCCC(=O)*)cc1; C20 diacid = O=C(O)CCCCCCCCCCCCCCCCCCC(=O)*; C18 diacid = O=C(O)CCCCCCCCCCCCCCCCC(=O)*; C16 diacid = O=C(O)CCCCCCCCCCCCCCC(=O)*; γGlu = O=C(O)[C@H](CCC(=O)[*:2])N[*:1]; Desaminohistidyl = O=C(CCc1c[nH]cn1)*; εLys = N[C@@H](CCCCN[*:1])C(=O)[*:2]; Trx = NC[C@H]1CC[C@H](C(=O)O)CC1; AEEA = NCCOCCOCC(=O)O; Aib = CC(C)(N)C(=O)O
test-readout: Food intake relative to vehicle (%) 0-24 hr, 10 nmol/kg
Numbers only here, please. The scale is %.

Worked set:
{"substance": "H-H[Aib]EGTFTSDVSSYLEGQAAKEFIAWLVRGRK([AEEA-AEEA-γGlu-C18 diacid])GGEASELSTAALGRLSAELHELATLPRTETGSGSP-NH2 [Compound 0042]", "unit-tag": "%", "test-value": 52}
{"substance": "H-H[Aib]EGTFTSDVSSYLEGQAAK([AEEA-AEEA-γGlu-C18 diacid])EFIAWLVRGRGGGEASELSTAALGRLSAELHELATLPRTETGSGSP-NH2 [Compound 0007]", "unit-tag": "%", "test-value": 67}
{"substance": "H-H[Aib]EGTFTSDVSRYLEEQAAREFIEWLVRGRK([AEEA-AEEA-γGlu-Trx-C20 diacid])GGGGEASELSTAALGRLSAELHELATLPRTETGSGSP-NH2 [Compound 0511]", "unit-tag": "%", "test-value": 61}
{"substance": "H-H[Aib]EGTFTSDVSSYLEGQAAK([AEEA-AEEA-γGlu-C18 diacid])EFIAWLVRGRGGGGGGGGGEASELSTAALGRLSAELHELATLPRTETGSGSP-NH2 [Compound 0052]", "unit-tag": "%", "test-value": 42}
{"substance": "H-H[Aib]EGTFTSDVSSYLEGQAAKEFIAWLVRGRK([εLys-AEEA-AEEA-γGlu-C18 diacid])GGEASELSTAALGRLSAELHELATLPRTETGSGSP-NH2 [Compound 0045]", "unit-tag": "%", "test-value": 46}
{"substance": "H-H[Aib]EGTFTSDVSSYLEEQAAREFIAWLVRGRK([AEEA-AEEA-γGlu-C20 diacid])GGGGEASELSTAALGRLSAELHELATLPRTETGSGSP-NH2 [Compound 0502]", "unit-tag": "%", "test-value": 61}
{"substance": "Desaminohistidyl-AEGTFTSDVSSYLEEQAAREFIAWLVRGRK([AEEA-AEEA-γGlu-Trx-C20 diacid])EASELSTAALGRLSAELHELATLPRTETGSGSP-NH2 [Compound 0035]", "unit-tag": "%", "test-value": 76}
{"substance": "HWEGTFTSDVSSYLEEK([εLys-AEEA-AEEA-γGlu-Trx-C20 diacid])AAREFIEWLVRGRGEASELSTAALGRLSAELHELATLPRTETGSGSP-NH2 [Compound 0434]", "unit-tag": "%", "test-value": 39}

Ask: Sample H-HWEGTFTSDVSSYLEEQAARK([AEEA-AEEA-γGlu-Decanoyl(10-(4-HOOC-PhO))])FIEWLVRGRGEGGGGGASELSTAALGRLSAELHELK([AEEA-AEEA-γGlu-Decanoyl(10-(4-HOOC-PhO))])TLPRTETGSGSP-NH2 [Compound 0232] — what was its Food intake relative to vehicle (%) 0-24 hr, 10 nmol/kg?
Reply: 61

Ask: Could you tell me which Food intake relative to vehicle (%) 0-24 hr, 10 nmol/kg is on file for H-H[Aib]EGTFTSDVSK([AEEA-AEEA-γGlu-C16 diacid])YLEEQAARK([AEEA-AEEA-γGlu-C16 diacid])FIAWLVRGRGGGGGEASELSTAALGRLSAELHELATLPRTETGSGSP-NH2 [Compound 0516] ?
Reply: 87

* * *

target: human amylin receptor (hAmyR3) (Homo sapiens, UniProt O60896+P30988); construct: host or cells: BHK cells (Hollex-1 line: human calcitonin receptor (a) + CRE-Luc), further transfected with human RAMP3; test: Human amylin receptor in vitro potency assay (CRE-luciferase reporter, BHK cells); assay type: cell-based; conditions: Table 4a; BHK hAmyR3/CRE-Luc cells, 3 hours; read-out: Human AmyR3 potency [EC50 (pM)];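 note: BHK cells expressing human calcitonin receptor plus RAMP3 (amylin-3 receptor) with a CRE-luciferase reporter, agonist activity read as luminescence from cAMP-driven transcription, 7-point serial dilutions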
Sequence (P30988 25-474): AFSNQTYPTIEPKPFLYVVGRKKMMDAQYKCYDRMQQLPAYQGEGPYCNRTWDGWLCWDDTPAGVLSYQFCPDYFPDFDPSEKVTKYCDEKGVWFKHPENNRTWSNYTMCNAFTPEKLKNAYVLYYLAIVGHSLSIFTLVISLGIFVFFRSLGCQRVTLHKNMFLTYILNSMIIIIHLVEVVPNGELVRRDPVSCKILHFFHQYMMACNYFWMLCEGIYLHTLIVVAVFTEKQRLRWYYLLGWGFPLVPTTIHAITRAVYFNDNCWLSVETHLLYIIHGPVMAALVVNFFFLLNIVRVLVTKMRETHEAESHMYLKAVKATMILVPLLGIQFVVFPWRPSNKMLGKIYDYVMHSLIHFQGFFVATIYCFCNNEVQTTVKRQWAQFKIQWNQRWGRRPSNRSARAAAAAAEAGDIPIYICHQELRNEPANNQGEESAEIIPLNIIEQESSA
Sequence (O60896 24-148): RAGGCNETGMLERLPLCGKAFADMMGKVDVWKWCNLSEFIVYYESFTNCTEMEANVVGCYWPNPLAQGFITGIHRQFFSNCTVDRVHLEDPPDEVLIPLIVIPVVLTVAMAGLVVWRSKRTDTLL
Starred links: 1 amine or outer side, 2 acyl side, 3 side chain; linkers in the order of their positions; H or OH if unused. Non-standard residues stand in square brackets, D forms with d. Groups on a side chain read outwards from the residue. *: point of attachment. C20 diacid = O=C(O)CCCCCCCCCCCCCCCCCCC(=O)*; C18 diacid = O=C(O)CCCCCCCCCCCCCCCCC(=O)*; C16 diacid = O=C(O)CCCCCCCCCCCCCCC(=O)*; γGlu = O=C(O)[C@H](CCC(=O)[*:2])N[*:1]; Trx = NC[C@H]1CC[C@H](C(=O)O)CC1; AEEA = NCCOCCOCC(=O)O; Aib = CC(C)(N)C(=O)O
test-readout: EC50

These recorded examples may help you get a feel for the data.
{"substance": "H-HAEGTFTSDVSK([AEEA-AEEA-γGlu-C16 diacid])YLEEQAVREFIAK([AEEA-AEEA-γGlu-C16 diacid])LVRGRGGGEASELSTAALGRLSAELHELATLPRTETGSGSP-NH2 [Compound 0482]", "system-name": "human amylin receptor (hAmyR3) (Homo sapiens, UniProt O60896+P30988)", "EC50": "31.8 pM"}
{"substance": "H-H[Aib]EGTFTSDVSRYLEEQAAREFIEWLVRGRK([AEEA-AEEA-γGlu-Trx-C20 diacid])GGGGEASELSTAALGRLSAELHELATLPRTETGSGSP-NH2 [Compound 0511]", "system-name": "human amylin receptor (hAmyR3) (Homo sapiens, UniProt O60896+P30988)", "EC50": "8.4 pM"}

Ask: Need EC50 of H-H[Aib]EGTFTSDVSK([AEEA-AEEA-γGlu-C18 diacid])YLEEQAAREFIAWLVRGRGGGGGEASELSTAALGRLSAELHELATLPRTETGSGSP-NH2 [Compound 0640] , thanks.
Reply: 6 pM
